B1: FAM189A2 (parent)
chain: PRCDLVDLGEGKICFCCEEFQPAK

- Variants of: B1
- assayRemarks: protein stability index of a GFP-peptide fusion (GPS, HEK-293T) (PSI 1-6); higher = more stable;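 also: lentivirally expressed fusions sorted by FACS into six bins by GFP to DsRed ratio, PSI derived from sequencing read proportions per bin multiplied by bin number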
- conditionParameters: c terminus: a fixed tail appended
quantityMeasured: protein stability index
Reply with the value as a number alone.

INSERT INTO results (biosequence, quantitymeasured, val) VALUES
  ('PECDLVDLGEGKICFCCEEFQPAK [R2E]', 'protein stability index', 3.35);

Prompt: Read off the recorded protein stability index for PRCDLVDLGEGKICFCCEHFQPAK [E19H]
Completion: 2.94

Prompt: Read off the recorded protein stability index for PRCDLVDLGIGKICFCCEEFQPAK [E10I]
Completion: 2.08

Prompt: Read off the recorded protein stability index for PRCDLVDLHEGKICFCCEEFQPAK [G9H]
Completion: 3.06

Prompt: Read off the recorded protein stability index for PRCDLVDLREGKICFCCEEFQPAK [G9R]
Completion: 2.14

Prompt: Read off the recorded protein stability index for PRCDLVDLGEGRICFCCEEFQPAK [K12R]
Completion: 1.99

Prompt: Read off the recorded protein stability index for PRCDLVDLGEGKICFCCEEFGPAK [Q21G]
Completion: 3.07

Prompt: Read off the recorded protein stability index for PRCDLVDLEEGKICFCCEEFQPAK [G9E]
Completion: 2.86

Prompt: Read off the recorded protein stability index for PRCDLVDLSEGKICFCCEEFQPAK [G9S]
Completion: 2.77

Prompt: Read off the recorded protein stability index for PRPDLVDLGEGKICFCCEEFQPAK [C3P]
Completion: 2.89

Prompt: Read off the recorded protein stability index for FRCDLVDLGEGKICFCCEEFQPAK [P1F]
Completion: 1.85

Prompt: Read off the recorded protein stability index for PRCDLVDLGEGKICFCCEEPQPAK [F20P]
Completion: 4

Prompt: Read off the recorded protein stability index for PRCMLVDLGEGKICFCCEEFQPAK [D4M]
Completion: 2.46

Prompt: Read off the recorded protein stability index for PRCDLVDLGEGKICFCCEELQPAK [F20L]
Completion: 2.42

Prompt: Read off the recorded protein stability index for PYCDLVDLGEGKICFCCEEFQPAK [R2Y]
Completion: 2.25

Data provenance: the supplement of paper PMC10567573
